Just for reference, ChEMBL document CHEMBL5385907 is where these values come from.

Protocol Summary: Toxicity in female Sprague-Dawley rat assessed as no observed adverse effect level at iv administration and observed on day 14
Type: organism-based
Particulars: in vivo, time 14 day
Residues, ends and D or L forms follow the SMILES beside them.
Value Type: NOAEL at 336 h

What does the record list as NOAEL at 336 h for CCCCCCCC(=O)N[C@@H](CCCCN)C(=O)N[C@@H](CCCCN)C(=O)N[C@@H](C)C(=O)N[C@@H](CC(C)C)C(=O)N[C@@H](CCCCN)C(=O)N[C@@H](CC(C)C)C(=O)N[C@@H](C)C(=O)N[C@@H](CCCCN)C(=O)N[C@@H](CCCCN)C(=O)N1CCC[C@H]1C(=O)N[C@@H](CC(C)C)C(=O)N[C@@H](CCCCN)C(=O)N[C@@H](CC(C)C)C(=O)N[C@@H](CC(C)C)C(=O)N[C@@H](CCCCN)C(N)=O (HELM PEPTIDE1{[CCCCCCCC(=O)[*:2]].K.K.A.L.K.L.A.K.K.P.L.K.L.L.K.[am]}$$$$V2.0) ?
60 mg/kg

###

Protocol Summary: Hydrophobicity of the compound assessed as retention time by reversed-phase HPLC analysis
Format: physicochemical
Give Retention_time for every item shown.
Answers are plain numbers, in min.

Some solved entries appear below for comparison.
Ac-AKLLKLLKKPLKLLK-NH2: 19.2
Ac-KKLLKLAKKPLKLLK-NH2: 16.8
Ac-KKLLALLKKPLKLLK-NH2: 19.4
Ac-KKLLKLLKKPLKLLA-NH2: 18.9
Ac-KKLAKLLKKPLKLLK-NH2: 17.1
Ac-KLLKLLKKPLKLL-NH2: 19.4
Ac-LLKLLKKPLKLLK-NH2: 19.8
Ac-KKALKLLKKPLKLLK-NH2: 16.7

# map each substance to its Retention_time
1. Ac-KKLLKLLAKPLKLLK-NH2
2. Ac-KKLLKLLKKPLKALK-NH2
3. Ac-KKLLKLLKAPLKLLK-NH2
4. Ac-KLLKLLKKPLKLLKKL-NH2

1. 19.6
2. 17.5
3. 19.6
4. 19.7

The following substances each have a reported value; give each one's Retention_time.
1. Ac-KLLKLLKKPLKLLK-NH2
2. Ac-KKLLKLLKKPAKLLK-NH2
3. Ac-KLLKLLKKPLKL-NH2
4. Ac-KLLKLLKKPLKLLKK-NH2

[18.8, 17.1, 18, 18.2]

###

Protocol Summary: Hydrophobicity of the compound assessed as retention time by reversed-phase HPLC analysis
Assay type: physicochemical
Value Type: Retention_time (min)
Give bare numbers, in min.

Ac-KKLLKLLKKPLKLAK-NH2: 17.1
Ac-LKLLKKPLKLLK-NH2: 18
Ac-KALLKLLKKPLKLLK-NH2: 19.4
Ac-LKKLLKLLKKPLKLLK-NH2: 20.1
Ac-KKLLKLLKKPLALLK-NH2: 19.6

Bench note: what Retention_time did Ac-KKALKLAKKPLKLLK-NH2 show?
15.3

###

Protocol Summary: Clearance in CD1 mouse at 10 mg/kg,iv administration measured upto 1 hr by LC-MS/MS analysis
Type: ADME, organism-based
Particulars: in vivo
Residues, ends and D or L forms follow the SMILES beside them.
Value Type: clearance (mL/min/kg)
One number for each entry, in mL/min/kg.

Consider the molecule CCCCCCCC(=O)N[C@@H](CCCCN)C(=O)N[C@@H](CCCCN)C(=O)N[C@@H](C)C(=O)N[C@@H](CC(C)C)C(=O)N[C@@H](CCCCN)C(=O)N[C@@H](CC(C)C)C(=O)N[C@@H](C)C(=O)N[C@@H](CCCCN)C(=O)N[C@@H](CCCCN)C(=O)N1CCC[C@H]1C(=O)N[C@@H](CC(C)C)C(=O)N[C@@H](CCCCN)C(=O)N[C@@H](CC(C)C)C(=O)N[C@@H](CC(C)C)C(=O)N[C@@H](CCCCN)C(N)=O (HELM PEPTIDE1{[CCCCCCCC(=O)[*:2]].K.K.A.L.K.L.A.K.K.P.L.K.L.L.K.[am]}$$$$V2.0) and give its measured clearance.
190
